Where do these numbers come from? They come from patent US4673436A.

Assay: Film persistent corrosion wheel test (50-50 3% NaCl brine - Mentor, saturated CO2 + 100 ppm H2S), Table IV
Conditions: 160° F., film 1 hr, rinse 1 hr, run 24 hrs, single data points
METRIC: % Protection @ 10,000 ppm (%)
// return numeric value only (unit: %, not printed)

Tell me the measured % Protection @ 10,000 ppm of CCCCCCCCCCCCCCCCCC[N+](C)(C)CCCS [Compound 6] , please.
71

Also CCCCCCCCCCCCCCCCCCSCCC[N+](C)(C)C [Compound 12] , if possible.
14

And then CCCCCCCCCCCC[N+](C)(C)CCS [Compound 2] , what is it?
64

Field entry: CCCCCCCCCCCCCCCCCC[N+](C)(C)CCS [Compound 3]
53

Now give it for CCCCCCCCSCCC[N+](C)(C)C [Compound 10] too.
8

Now this one: CCCCCCCCCCCC[N+](C)(C)CCCS [Compound 5]
25

###

Assay: Inhibitor solubility test, Table V
Format: physicochemical
Conditions: 20% active inhibitor added at 0.5% by volume; observed initially and after 24 hours
METRIC: Solubility in distilled water

// worked examples, Solubility in distilled water included
MOLECULE: CCCCCCCCCCCCCCCCCC[N+](C)(C)CCCS [Compound 6]
Solubility in distilled water: sol
--
MOLECULE: CCCCCCCCSCC[N+](C)(C)C [Compound 7]
Solubility in distilled water: sol
--
MOLECULE: CCCCCCCCCCCCSCC[N+](C)(C)C [Compound 8]
Solubility in distilled water: sol
--
MOLECULE: CCCCCCCCCCCC[N+](C)(C)CCS [Compound 2]
Solubility in distilled water: sol

What measured Solubility in distilled water goes with CCCCCCCCSCCC[N+](C)(C)C [Compound 10] ?
sol

And what about the molecule CCCCCCCCCCCCCCCCCCSCC[N+](C)(C)C [Compound 9] ?
disp

And the next one, CCCCCCCCCCCC[N+](C)(C)CCCS [Compound 5] ?
sol

###

Experiment: Corrosion wheel test, sour (3% NaCl brine, saturated N2 + 500 ppm H2S), Table II
Details: 4 ppm, 160° F., 24 hours, 3% NaCl brine only
Experimental: Twelve quaternary ammonium salts according to the present invention, were tested under four standard sets of corrosion wheel test conditions. These include a sweet-sour test in an all water system under a range of concentrations from 4-256 ppm (TABLE I). Tests 2 and 3 were run under sweet (TABLE III), and sour conditions (TABLE II) at low (4 ppm) and high (256 ppm) concentrations only. […]
Task for the reader: assign each of the following compounds its reported % Protection @ 4 ppm.
Express the result in % but write the number alone.

Tell me the measured % Protection @ 4 ppm of `CCCCCCCCCCCCSCCC[N+](C)(C)C` , please.
15

Also `CCCCCCCCCCCCSCC[N+](C)(C)C` , if possible.
3

One more compound: `CCCCCCCCCCCCCCCCCC[N+](C)(C)CCCS`
14

Please give the result for `CCCCCCCCCCCC[N+](C)(C)CCS` too.
23

Again, but for `CCCCCCCC[N+](C)(C)CCCS`
3

Then what about the compound `CCCCCCCCCCCCCCCCCCSCCC[N+](C)(C)C` ?
14

Likewise for `CCCCCCCCSCCC[N+](C)(C)C` ?
12

Would you kindly repeat that for `CCCCCCCCCCCCCCCCCCSCC[N+](C)(C)C` ?
6

Also, `CCCCCCCCCCCCCCCCCC[N+](C)(C)CCS` please.
11

Again, but for `CCCCCCCCSCC[N+](C)(C)C`
7

Now the compound `CCCCCCCCCCCC[N+](C)(C)CCCS`
17
